The values you see were collected from patent US7759345B2.

# System: IGROV-1
# Assay notes: Inhibition of cells growth by colorimetric assay (SRB), IGROV-1
# Format: cell-based
# Experimental setup: Homo sapiens, IGROV-1, 48 h, SRB assay, 48 hours exposure; read-out: IGROV GI50
# Method: 2°.—Inhibition of Cells Growth by Colorimetric Assay. A colorimetric type of assay, using sulforhodamine B (SRB) reaction has been adapted for a quantitative measurement of cell growth and viability [following the technique described by Philip Skehan, et al. (1990), New colorimetric cytotoxicity assay for anticancer drug screening, J. Natl. Cancer Inst., 82:1107-1112] […] The values for mean+/−SD of data from triplicate wells are calculated. […]
Metric name: GI50 (nM)

[
  {
    "Molecule": "C=COC(=O)Oc1c(C)c2c(c3c1[C@H]1SC[C@]4(NCCc5cc(OC(=O)OC(C)(C)C)c(OC)cc54)C(=O)OC[C@@H]3N3C1[C@H]1c4c(cc(C)c(OC)c4O)C[C@@H]([C@@H]3O)N1C)OCO2 (some centres unmarked) [Compound 176]",
    "Assay value": 1.74
  },
  {
    "Molecule": "COc1cc2c(cc1O)CCN[C@]21CS[C@@H]2c3c(OC(=O)CCCCC4SCC5NC(=O)NC54)c(C)c4c(c3[C@H](COC1=O)N1C2[C@H]2c3c(cc(C)c(OC)c3O)C[C@@H]([C@@H]1O)N2C)OCO4 (some centres unmarked) [Compound 171]",
    "Assay value": 1.93
  },
  {
    "Molecule": "COc1cc2c(cc1O)CCN[C@]21CS[C@@H]2c3c(OC(=O)CCCCC4SCC5NC(=O)NC54)c(C)c4c(c3[C@H](COC1=O)N1C2[C@H]2c3c(cc(C)c(OC)c3OC(=O)CCCCC3SCC5NC(=O)NC53)C[C@@H]([C@@H]1O)N2C)OCO4 (some centres unmarked) [Compound 172]",
    "Assay value": 14.2
  },
  {
    "Molecule": "COc1cc2c(cc1OC(=O)OC(C)(C)C)CCN[C@]21CS[C@@H]2c3c(OC(=O)[C@H](C)NC(=O)OC(C)(C)C)c(C)c4c(c3[C@H](COC1=O)N1C2[C@H]2c3c(cc(C)c(OC)c3O)C[C@@H]([C@@H]1O)N2C)OCO4 (some centres unmarked) [Compound 175]",
    "Assay value": 0.641
  },
  {
    "Molecule": "COc1cc2c(cc1O)CCN[C@]21CS[C@@H]2c3c(O)c(C)c4c(c3[C@H](COC1=O)N1C2[C@H]2c3c(cc(C)c(OC)c3O)C[C@@H]([C@@H]1O)N2C)OCO4 (some centres unmarked) [Et-701]",
    "Assay value": 2.33
  }
]

---

# System: A-549
# Assay notes: Inhibition of cells growth by colorimetric assay (SRB), A-549
# Type: cell-based
# Experimental setup: A-549; SRB, 48 hours exposure; read-out: LC50 A-549
# Experimental: 2°.—Inhibition of Cells Growth by Colorimetric Assay. A colorimetric type of assay, using sulforhodamine B (SRB) reaction has been adapted for a quantitative measurement of cell growth and viability [following the technique described by Philip Skehan, et al. (1990), New colorimetric cytotoxicity assay for anticancer drug screening, J. Natl. Cancer Inst., 82:1107-1112] […] The values for mean+/−SD of data from triplicate wells are calculated. […]

[
  {
    "Compound": "C=COC(=O)Oc1cc2c(cc1OC)[C@@]1(CS[C@@H]3c4c(OC(C)=O)c(C)c5c(c4[C@H](COC1=O)N1C3[C@H]3c4c(cc(C)c(OC)c4O)C[C@@H]([C@@H]1O)N3C)OCO5)NCC2 (stereo partly shown)",
    "LC50 (50% lethal concentration)": "49 nM"
  }
]

---

# System: MEL-28
# Assay notes: Inhibition of cell growth by counting cells, MEL-28
# Assay type: cell-based, human
# Experimental setup: Homo sapiens, SK-MEL-28, 72 h; three days of incubation; read-out: IC50 (molar) MEL-28
// classify: if (IC50 < 1 nM) 1 (yes) else 0 (no)

[
  {
    "Compound": "COc1cc2c(cc1OC(=O)OCc1ccccc1)CCN[C@]21CS[C@@H]2c3c(OC(C)=O)c(C)c4c(c3[C@H](COC1=O)N1C2[C@H]2c3c(cc(C)c(OC)c3O)C[C@@H]([C@@H]1O)N2C)OCO4 (stereo partly drawn)",
    "Qualitative label": "1 (yes)"
  },
  {
    "Compound": "CCOc1cc2c(cc1OC)[C@@]1(CS[C@@H]3c4c(OC(C)=O)c(C)c5c(c4[C@H](COC1=O)N1C3[C@H]3c4c(cc(C)c(OC)c4OCC)C[C@@H]([C@@H]1C#N)N3C)OCO5)NCC2 (stereo partly drawn)",
    "Qualitative label": "0 (no)"
  },
  {
    "Compound": "CCCCCCCC(=O)Oc1c(C)c2c(c3c1[C@H]1SC[C@]4(NCCc5cc(OC(=O)OC(C)(C)C)c(OC)cc54)C(=O)OC[C@@H]3N3C1[C@H]1c4c(cc(C)c(OC)c4O)C[C@@H]([C@@H]3C#N)N1C)OCO2 (stereo partly drawn)",
    "Qualitative label": "0 (no)"
  },
  {
    "Compound": "C=CCOC(=O)Oc1cc2c(cc1OC)[C@@]1(CS[C@@H]3c4c(OC(C)=O)c(C)c5c(c4[C@H](COC1=O)N1C3[C@H]3c4c(cc(C)c(OC)c4O)C[C@@H]([C@@H]1C#N)N3C)OCO5)NCC2 (stereo partly drawn)",
    "Qualitative label": "1 (yes)"
  },
  {
    "Compound": "CCCCCCCCCCCCCCCC(=O)Oc1c(C)c2c(c3c1[C@H]1SC[C@]4(NCCc5cc(O)c(OC)cc54)C(=O)OC[C@@H]3N3C1[C@H]1c4c(cc(C)c(OC)c4O)C[C@@H]([C@@H]3C#N)N1C)OCO2 (stereo partly drawn)",
    "Qualitative label": "0 (no)"
  },
  {
    "Compound": "CCCOc1cc2c(cc1OC)[C@@]1(CS[C@@H]3c4c(OC(C)=O)c(C)c5c(c4[C@H](COC1=O)N1C3[C@H]3c4c(cc(C)c(OC)c4O)C[C@@H]([C@@H]1C#N)N3C)OCO5)NCC2 (stereo partly drawn)",
    "Qualitative label": "1 (yes)"
  },
  {
    "Compound": "COc1cc2c(cc1O)CCN(C)[C@]21CS[C@@H]2c3c(OC(C)=O)c(C)c4c(c3[C@H](COC1=O)N1C2[C@H]2c3c(cc(C)c(OC)c3O)C[C@@H]([C@@H]1C#N)N2C)OCO4 (stereo partly drawn)",
    "Qualitative label": "1 (yes)"
  },
  {
    "Compound": "CCCCCCCC(=O)Oc1c(C)c2c(c3c1[C@H]1SC[C@]4(NCCc5cc(O)c(OC)cc54)C(=O)OC[C@@H]3N3C1[C@H]1c4c(cc(C)c(OC)c4O)C[C@@H]([C@@H]3O)N1C)OCO2 (stereo partly drawn)",
    "Qualitative label": "1 (yes)"
  },
  {
    "Compound": "COc1cc2c(cc1O)CCN[C@]21CS[C@@H]2c3c(O)c(C)c4c(c3[C@H](COC1=O)N1C2[C@@H]2N[C@@H](Cc3cc(C)c(OC)c(O)c32)[C@@H]1C#N)OCO4 (stereo partly drawn)",
    "Qualitative label": "1 (yes)"
  },
  {
    "Compound": "CCCC(=O)Oc1cc2c(cc1OC)[C@@]1(CS[C@@H]3c4c(OC(C)=O)c(C)c5c(c4[C@H](COC1=O)N1C3[C@H]3c4c(cc(C)c(OC)c4OC(=O)CCC)C[C@@H]([C@@H]1C#N)N3C)OCO5)NCC2 (stereo partly drawn)",
    "Qualitative label": "1 (yes)"
  },
  {
    "Compound": "COc1cc2c(cc1OC(C)=O)CCN[C@]21CS[C@@H]2c3c(OC(C)=O)c(C)c4c(c3[C@H](COC1=O)N1C2[C@H]2c3c(cc(C)c(OC)c3O)C[C@@H]([C@@H]1O)N2C)OCO4 (stereo partly drawn)",
    "Qualitative label": "1 (yes)"
  },
  {
    "Compound": "COc1cc2c(cc1OC(C)=O)CCN[C@]21CS[C@@H]2c3c(OC(C)=O)c(C)c4c(c3[C@H](COC1=O)N1C2[C@H]2c3c(cc(C)c(OC)c3OC(C)=O)C[C@@H]([C@@H]1O)N2C)OCO4 (stereo partly drawn)",
    "Qualitative label": "0 (no)"
  },
  {
    "Compound": "COc1cc2c(cc1O)CCN[C@]21CS[C@@H]2c3c(OC(C)=O)c(C)c4c(c3[C@H](COC1=O)N1C2[C@H]2c3c(cc(C)c(OC)c3OC(=O)OC(C)(C)C)C[C@@H]([C@@H]1C#N)N2C)OCO4 (stereo partly drawn)",
    "Qualitative label": "0 (no)"
  },
  {
    "Compound": "COc1cc2c(cc1OC(=O)OC(C)(C)C)CCN[C@]21CS[C@@H]2c3c(OC(C)=O)c(C)c4c(c3[C@H](COC1=O)N1C2[C@H]2c3c(cc(C)c(OC)c3OC(=O)OC(C)(C)C)C[C@@H]([C@@H]1C#N)N2C)OCO4 (stereo partly drawn)",
    "Qualitative label": "1 (yes)"
  },
  {
    "Compound": "COc1cc2c(cc1OC(C)=O)CCN[C@]21CS[C@@H]2c3c(OC(C)=O)c(C)c4c(c3[C@H](COC1=O)N1C2[C@H]2c3c(cc(C)c(OC)c3O)C[C@@H]([C@@H]1C#N)N2C(=O)OC(C)(C)C)OCO4 (stereo partly drawn)",
    "Qualitative label": "0 (no)"
  },
  {
    "Compound": "COc1cc2c(cc1OC(=O)C(F)(F)F)CCN[C@]21CS[C@@H]2c3c(OC(C)=O)c(C)c4c(c3[C@H](COC1=O)N1C2[C@H]2c3c(cc(C)c(OC)c3O)C[C@@H]([C@@H]1C#N)N2C)OCO4 (stereo partly drawn)",
    "Qualitative label": "0 (no)"
  },
  {
    "Compound": "COc1cc2c(cc1OC(C)=O)CCN[C@]21CS[C@@H]2c3c(OC(C)=O)c(C)c4c(c3[C@H](COC1=O)N1C2[C@@H]2N[C@@H](Cc3cc(C)c(OC)c(O)c32)[C@@H]1C#N)OCO4 (stereo partly drawn)",
    "Qualitative label": "1 (yes)"
  }
]
